Task for the reader: assign each of the following molecules its reported IC50.
Target: α4β1 integrin (Jurkat cell adhesion to immobilized CS-1 derived peptide CLHPGEILDVPST) (Homo sapiens, UniProt P05556+P13612)
Construct: 100 μl of Jurkat cells (2.5×10^6 cells/ml) in DMEM plus BSA
Sequence (P13612 34-1032): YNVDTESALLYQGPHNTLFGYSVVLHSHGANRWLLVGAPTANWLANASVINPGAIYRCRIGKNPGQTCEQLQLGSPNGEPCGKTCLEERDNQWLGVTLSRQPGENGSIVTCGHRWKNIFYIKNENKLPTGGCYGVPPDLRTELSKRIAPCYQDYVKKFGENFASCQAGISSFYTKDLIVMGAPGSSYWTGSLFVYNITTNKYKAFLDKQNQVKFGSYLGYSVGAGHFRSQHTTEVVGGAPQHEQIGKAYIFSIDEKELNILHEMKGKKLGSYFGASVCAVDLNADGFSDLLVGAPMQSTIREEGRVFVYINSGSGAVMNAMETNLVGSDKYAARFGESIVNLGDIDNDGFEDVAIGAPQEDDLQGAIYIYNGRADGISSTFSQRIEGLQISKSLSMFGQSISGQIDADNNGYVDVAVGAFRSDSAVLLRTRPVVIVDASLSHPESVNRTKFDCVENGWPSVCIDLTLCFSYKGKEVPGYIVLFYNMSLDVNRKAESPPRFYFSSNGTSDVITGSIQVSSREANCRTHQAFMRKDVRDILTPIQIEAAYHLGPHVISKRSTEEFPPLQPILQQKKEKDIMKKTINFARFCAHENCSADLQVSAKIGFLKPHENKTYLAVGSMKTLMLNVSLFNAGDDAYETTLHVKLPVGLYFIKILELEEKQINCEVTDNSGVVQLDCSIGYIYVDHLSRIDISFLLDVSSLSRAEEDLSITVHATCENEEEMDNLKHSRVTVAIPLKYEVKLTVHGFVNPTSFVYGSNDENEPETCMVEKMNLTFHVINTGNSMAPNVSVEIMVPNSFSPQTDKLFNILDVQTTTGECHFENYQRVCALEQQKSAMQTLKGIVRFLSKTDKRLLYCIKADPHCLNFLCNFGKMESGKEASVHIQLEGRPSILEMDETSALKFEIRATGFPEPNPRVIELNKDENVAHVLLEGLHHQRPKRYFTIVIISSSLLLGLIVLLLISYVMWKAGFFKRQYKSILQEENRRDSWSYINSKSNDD
Sequence (P05556 21-798): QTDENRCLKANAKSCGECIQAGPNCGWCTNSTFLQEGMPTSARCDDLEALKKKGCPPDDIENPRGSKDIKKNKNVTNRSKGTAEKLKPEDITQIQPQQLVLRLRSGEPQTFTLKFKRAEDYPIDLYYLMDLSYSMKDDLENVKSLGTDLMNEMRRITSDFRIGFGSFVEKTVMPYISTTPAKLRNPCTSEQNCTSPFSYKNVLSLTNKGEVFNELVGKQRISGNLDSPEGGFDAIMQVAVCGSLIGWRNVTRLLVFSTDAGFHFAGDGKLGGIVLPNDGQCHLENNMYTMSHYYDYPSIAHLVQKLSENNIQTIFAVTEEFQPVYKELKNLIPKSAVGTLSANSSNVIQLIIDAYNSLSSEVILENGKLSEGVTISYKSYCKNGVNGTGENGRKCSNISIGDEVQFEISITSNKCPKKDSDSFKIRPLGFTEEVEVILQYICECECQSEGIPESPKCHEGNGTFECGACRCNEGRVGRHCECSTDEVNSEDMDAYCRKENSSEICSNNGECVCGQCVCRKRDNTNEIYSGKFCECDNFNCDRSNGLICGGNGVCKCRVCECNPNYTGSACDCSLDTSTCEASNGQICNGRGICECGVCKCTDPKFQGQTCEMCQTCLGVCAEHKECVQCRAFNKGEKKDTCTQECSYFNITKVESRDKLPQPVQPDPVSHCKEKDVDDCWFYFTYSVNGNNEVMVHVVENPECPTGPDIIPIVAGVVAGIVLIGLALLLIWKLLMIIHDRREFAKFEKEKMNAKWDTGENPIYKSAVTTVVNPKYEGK
Experiment: Jurkat-CS-1 assay
Conditions: Jurkat cells on CS-1 peptide coated plates; read-out: JK/CS-1 (Jurkat CS-1 Assay IC50 value range)
Structures can show the parent of a compound that is named as a salt.

Input: Look at this molecule and give its reported IC50. COC(=O)[C@H](Cc1ccc(OCc2c(Cl)cccc2Cl)cc1)NC(=O)[C@H]1CSCN1C(=O)OCCN1CCCC1 (relative stereo)
Output: 50 to 750 nM

Input: Look at this molecule and give its reported IC50. O=C(NO)[C@H](Cc1ccc(OCc2c(Cl)cccc2Cl)cc1)NC(=O)[C@H]1CSCN1C(=O)OCCN1CCOCC1
Output: ≥ 750 nM

Input: Look at this molecule and give its reported IC50. CC1(C)SCN(C(=O)CCC(=O)O)[C@H]1C(=O)N[C@@H](Cc1ccc(NC(=O)c2c(Cl)cccc2Cl)cc1)C(=O)O (relative stereo)
Output: ≤ 50 nM

Input: Look at this molecule and give its reported IC50. O=C(Nc1ccc(C[C@H](NC(=O)[C@@H]2CCCCN2C(=O)c2cccnc2)C(=O)O)cc1)c1c(Cl)cccc1Cl
Output: ≤ 50 nM

Input: Look at this molecule and give its reported IC50. O=C(Nc1ccc(C[C@H](NC(=O)[C@@H]2CSCN2)C(=O)O)cc1)c1c(Cl)cccc1Cl [Example 71, Monohydrochloride Salt]
Output: ≥ 750 nM

Input: Look at this molecule and give its reported IC50. CCOC(=O)N1CSC[C@@H]1C(=O)N[C@@H](Cc1ccc(OCc2c(Cl)cccc2Cl)cc1)C(=O)NO
Output: ≥ 750 nM

Input: Look at this molecule and give its reported IC50. O=C(Nc1ccc(C[C@H](NC(=O)[C@H]2CCCCN2C(=O)c2cccnc2)C(=O)O)cc1)c1c(Cl)cccc1Cl
Output: ≤ 50 nM

Input: Look at this molecule and give its reported IC50. COC(=O)[C@H](Cc1ccc(NC(=O)c2c(Cl)cccc2Cl)cc1)NC(=O)[C@H]1CSCN1S(=O)(=O)c1cccc2c(N(C)C)cccc12
Output: ≥ 750 nM

Input: Look at this molecule and give its reported IC50. NC(=O)[C@H](Cc1ccc(NC(=O)c2c(Cl)cccc2Cl)cc1)NC(=O)[C@H]1CSCN1C(=O)OCCN1CCOCC1
Output: ≥ 750 nM

Input: Look at this molecule and give its reported IC50. O=C(Nc1ccc(C[C@H](NC(=O)[C@@H]2CCCCN2C(=O)C2NC(C(=O)O)CS2)C(=O)O)cc1)c1c(Cl)cccc1Cl (some centres unmarked)
Output: 50 to 750 nM

Input: Look at this molecule and give its reported IC50. CC(C)(CC(=O)O)CC(=O)N1CCC[C@H]1C(=O)N[C@@H](Cc1ccc(NC(=O)c2c(Cl)cccc2Cl)cc1)C(=O)O
Output: 50 to 750 nM

Input: Look at this molecule and give its reported IC50. COC(=O)[C@H](Cc1ccc(NC(=O)c2c(Cl)cccc2Cl)cc1)NC(=O)[C@H]1CSCN1C(=O)OCc1ccccn1 (relative stereo)
Output: ≤ 50 nM

Input: Look at this molecule and give its reported IC50. O=C(Nc1ccc(C[C@H](NC(=O)[C@H]2CSCN2C(=O)c2cccnc2)C(=O)O)cc1)c1c(Cl)cccc1Cl
Output: ≤ 50 nM

Input: Look at this molecule and give its reported IC50. O=C(Nc1ccc(C[C@H](NC(=O)[C@@H]2CSCCN2C(=O)CCc2nnn[nH]2)C(=O)O)cc1)c1c(Cl)cccc1Cl
Output: ≤ 50 nM

Input: Look at this molecule and give its reported IC50. COC(=O)[C@H](Cc1ccc(NC(=O)c2c(Cl)cccc2Cl)cc1)NC(=O)[C@H]1CSCN1C(=O)OCCN1CCOCC1 (relative stereo)
Output: 50 to 750 nM

Input: Look at this molecule and give its reported IC50. CC(=O)CCC(=O)N1CCC[C@H]1C(=O)N[C@@H](Cc1ccc(NC(=O)c2c(Cl)cccc2Cl)cc1)C(=O)O
Output: 50 to 750 nM

Input: Look at this molecule and give its reported IC50. CC(C)(C)OC(=O)N1CC(C(=O)N[C@@H](Cc2ccc(NC(=O)c3c(Cl)cccc3Cl)cc2)C(=O)O)C1
Output: ≥ 750 nM

Input: Look at this molecule and give its reported IC50. CN1C(=O)CCC1(CCC(=O)O)CCC(=O)N[C@@H](Cc1ccc(OCc2c(Cl)cccc2Cl)cc1)C(=O)O (some centres unmarked)
Output: 50 to 750 nM

Input: Look at this molecule and give its reported IC50. COC(=O)[C@H](Cc1ccc(NC(=O)c2c(Cl)cccc2Cl)cc1)NC(=O)[C@H]1CSCN1S(C)(=O)=O
Output: 50 to 750 nM

Input: Look at this molecule and give its reported IC50. CCOC(=O)N1CSC(C)(C)[C@@H]1C(=O)N[C@@H](Cc1ccc(NC(=O)c2c(Cl)cccc2Cl)cc1)C(=O)OC (relative stereo)
Output: 50 to 750 nM

Input: Look at this molecule and give its reported IC50. CC(C)(C)OC(=O)N1CSC[C@@H]1C(=O)N[C@H](Cc1ccc(NC(=O)c2c(Cl)cccc2Cl)cc1)C(=O)O (stereo in doubt)
Output: ≥ 750 nM

Input: Look at this molecule and give its reported IC50. CCOC(=O)N1CSC[C@@H]1C(=O)N[C@@H](Cc1ccc(NC(=O)c2ccc(OC)cc2)cc1)C(=O)O
Output: 50 to 750 nM

Input: Look at this molecule and give its reported IC50. CS(=O)(=O)N1CSC[C@@H]1C(=O)N[C@@H](Cc1ccc(NC(=O)c2c(Cl)cccc2Cl)cc1)C(=O)O
Output: ≤ 50 nM

Input: Look at this molecule and give its reported IC50. O=C(O)CCC(=O)N1CCSCC1C(=O)N[C@@H](Cc1ccc(OCc2c(Cl)cccc2Cl)cc1)C(=O)O (stereo in doubt)
Output: 50 to 750 nM

Input: Look at this molecule and give its reported IC50. O=C(Nc1ccc(C[C@H](NC(=O)C2CCCN(C(=O)C3CCCC(C(=O)O)C3)C2)C(=O)O)cc1)c1c(Cl)cccc1Cl (some centres unmarked)
Output: 50 to 750 nM

Input: Look at this molecule and give its reported IC50. COc1ccc(C(=O)N2CCCC(C(=O)N[C@@H](Cc3ccc(NC(=O)c4c(Cl)cccc4Cl)cc3)C(=O)O)C2)cc1OC (some centres unmarked)
Output: 50 to 750 nM
